The entries below are paired with their reported pKi.
# system_name: UniProt:P50406
pKi: −log10 of the molar value.

- compound: "O=S(=O)(c1cccc(Cl)c1)c1cn(C2CCNC2)c2ccccc12 (centres undefined)"
  pKi: 8.49
- compound: "O=S(=O)(c1cccc(F)c1)c1cn(C2CCCNC2)c2ccccc12 (centres undefined)"
  pKi: 8.22
- compound: "COc1ccc2c(S(=O)(=O)c3cccc(Cl)c3)cn(C3CCNC3)c2c1 (centres undefined)"
  pKi: 8.34
- compound: "CN1CCC(n2cc(S(=O)(=O)c3cccc(F)c3)c3ccccc32)C1 (centres undefined)"
  pKi: 8.46
- compound: "O=S(=O)(c1cccc(F)c1)c1cn(C2CCNC2)c2ccc(F)cc12 (centres undefined)"
  pKi: 8.02
- compound: "O=S(=O)(c1cccc(F)c1)c1cn(C2CCNC2)c2cc(Cl)ccc12 (centres undefined)"
  pKi: 7.14
- compound: "O=S(=O)(c1cccc(F)c1)c1cn(C2CCNC2)c2cccc(F)c12 (centres undefined)"
  pKi: 7.74
- compound: "O=S(=O)(c1cccc(F)c1)c1cn(C2CCNC2)c2ccccc12 (centres undefined)"
  pKi: 8.33
- compound: "CN1CCC(n2cc(S(=O)(=O)c3cccc(F)c3)c3cc(F)ccc32)C1 (centres undefined)"
  pKi: 8.30

###

The entries below are paired with their reported Imax.
# system_name: 5-hydroxytryptamine receptor 6 (Homo sapiens, UniProt P50406)
# Sequence (P50406 whole entry): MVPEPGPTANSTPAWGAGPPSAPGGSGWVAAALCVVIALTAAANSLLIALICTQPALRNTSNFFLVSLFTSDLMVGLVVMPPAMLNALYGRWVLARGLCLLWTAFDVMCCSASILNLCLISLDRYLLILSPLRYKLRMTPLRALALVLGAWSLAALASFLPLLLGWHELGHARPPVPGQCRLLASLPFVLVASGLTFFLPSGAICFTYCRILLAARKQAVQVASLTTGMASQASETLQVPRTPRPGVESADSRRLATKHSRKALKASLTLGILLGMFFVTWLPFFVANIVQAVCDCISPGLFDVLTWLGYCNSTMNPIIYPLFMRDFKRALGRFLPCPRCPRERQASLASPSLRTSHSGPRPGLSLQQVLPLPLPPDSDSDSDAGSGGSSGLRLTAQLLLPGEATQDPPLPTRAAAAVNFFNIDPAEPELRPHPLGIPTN
# method_notes: Antagonist activity at human 5-HT6 receptor expressed in human HeLa cells assessed as inhibition of 5HT-induced intracellular cAMP level after 10 mins by radioimmunoassay relative to serotonin
# Assay type: functional, cell-based

- compound: "CN1CCC(n2cc(S(=O)(=O)c3cccc(Cl)c3)c3ccccc32)C1 (centres undefined)"
  system_name: "5-hydroxytryptamine receptor 6 (Homo sapiens, UniProt P50406)"
  Imax (%): 86
- compound: "CN1CCC(n2cc(S(=O)(=O)c3cccc4cccnc34)c3ccccc32)C1 (centres undefined)"
  system_name: "5-hydroxytryptamine receptor 6 (Homo sapiens, UniProt P50406)"
  Imax (%): 97
- compound: "CN1CCCC(n2cc(S(=O)(=O)c3cccc4ccccc34)c3ccccc32)C1 (centres undefined)"
  system_name: "5-hydroxytryptamine receptor 6 (Homo sapiens, UniProt P50406)"
  Imax (%): 87
- compound: "CN1CCC(n2cc(S(=O)(=O)c3cccc(F)c3)c3cc(F)ccc32)C1 (centres undefined)"
  system_name: "5-hydroxytryptamine receptor 6 (Homo sapiens, UniProt P50406)"
  Imax (%): 70

###

# system_name: 5-hydroxytryptamine receptor 6 (Homo sapiens)
# method_notes: Antagonist activity at human 5-HT6 receptor expressed in human HeLa cells assessed as inhibition of 5HT-induced intracellular cAMP level after 10 mins by radioimmunoassay relative to serotonin
# Assay type: functional, cell-based
readout_kind: Imax (%)

- compound: "O=S(=O)(c1cn(C2CCNC2)c2ccccc12)c1cccc2cccnc12 (stereo not given)"
  reported: 64
- compound: "COc1ccc2c(S(=O)(=O)c3cccc(Cl)c3)cn(C3CCNC3)c2c1 (stereo not given)"
  reported: 100
- compound: "CN1CCC(n2cc(S(=O)(=O)c3cccc4ccccc34)c3ccccc32)C1 (stereo not given)"
  reported: 98
- compound: "O=S(=O)(c1cccc(F)c1)c1cn(C2CCCNC2)c2ccc(F)cc12 (stereo not given)"
  reported: 85
- compound: "O=S(=O)(c1cccc2ccccc12)c1cn(C2CCNC2)c2ccccc12 (stereo not given)"
  reported: 100

###

The entries below are paired with their reported IC50.
# system_name: 5-hydroxytryptamine receptor 6 (Homo sapiens, UniProt P50406)
# method_notes: Antagonist activity at human 5-HT6 receptor expressed in human HeLa cells assessed as inhibition of 5HT-induced intracellular cAMP level after 10 mins by radioimmunoassay
# Assay type: functional, cell-based
readout_kind: IC50

- compound: "CN1CCC(n2cc(S(=O)(=O)c3cccc4ccccc34)c3ccccc32)C1 (centres undefined)"
  reported: "0.06 µM"
- compound: "COc1ccc2c(S(=O)(=O)c3cccc(Cl)c3)cn(C3CCNC3)c2c1 (centres undefined)"
  reported: "0.08 µM"
- compound: "CN1CCC(n2cc(S(=O)(=O)c3cccc(Cl)c3)c3ccccc32)C1 (centres undefined)"
  reported: "0.017 µM"
- compound: "O=S(=O)(c1cccc2ccccc12)c1cn(C2CCNC2)c2ccccc12 (centres undefined)"
  reported: "0.107 µM"
- compound: "CN1CCC(n2cc(S(=O)(=O)c3cccc(F)c3)c3cc(F)ccc32)C1 (centres undefined)"
  reported: "0.094 µM"
- compound: "CN1CCC(n2cc(S(=O)(=O)c3cccc4cccnc34)c3ccccc32)C1 (centres undefined)"
  reported: "0.076 µM"
- compound: "CN1CCCC(n2cc(S(=O)(=O)c3cccc4ccccc34)c3ccccc32)C1 (centres undefined)"
  reported: "0.107 µM"
- compound: "O=S(=O)(c1cn(C2CCNC2)c2ccccc12)c1cccc2cccnc12 (centres undefined)"
  reported: "0.082 µM"
- compound: "O=S(=O)(c1cccc(F)c1)c1cn(C2CCCNC2)c2ccc(F)cc12 (centres undefined)"
  reported: "0.018 µM"

###

The entries below are paired with their reported EC50.
# system_name: 5-hydroxytryptamine receptor 6 (Homo sapiens, UniProt P50406)
# method_notes: Agonist activity at human 5-HT6 receptor expressed in human HeLa cells assessed as effect on 5HT-induced intracellular cAMP level after 10 mins by radioimmunoassay

- compound: "COc1ccc2c(c1)c(S(=O)(=O)c1cccc(F)c1)cn2C1CCCNC1 (stereo unspecified)"
  EC50, nM: 73
- compound: "O=S(=O)(c1ccccc1)c1cn(C2CCNC2)c2ccccc12 (stereo unspecified)"
  EC50, nM: 60
- compound: "O=S(=O)(c1ccccc1)c1cn(C2CCCNC2)c2ccccc12 (stereo unspecified)"
  EC50, nM: 82
- compound: "O=S(=O)(c1cccc(Cl)c1)c1cn(C2CCNC2)c2ccccc12 (stereo unspecified)"
  EC50, nM: 125
- compound: "O=S(=O)(c1cccc(F)c1)c1cn(C2CCCNC2)c2ccccc12 (stereo unspecified)"
  EC50, nM: 56
- compound: "CN1CCC(n2cc(S(=O)(=O)c3cccc(F)c3)c3ccccc32)C1 (stereo unspecified)"
  EC50, nM: 398
- compound: "CCN1CCCC(n2cc(S(=O)(=O)c3cccc(F)c3)c3cc(OC)ccc32)C1 (stereo unspecified)"
  EC50, nM: 203
- compound: "CCN1CCCC(n2cc(S(=O)(=O)c3ccccc3)c3ccccc32)C1 (stereo unspecified)"
  EC50, nM: 31
- compound: "O=S(=O)(c1cccc(F)c1)c1cn(C2CCNC2)c2ccccc12 (stereo unspecified)"
  EC50, nM: 68
- compound: "O=S(=O)(c1cn(C2CCCNC2)c2ccccc12)c1cccc2cccnc12 (stereo unspecified)"
  EC50, nM: 592
- compound: "O=S(=O)(c1cccc(F)c1)c1cn(C2CCNC2)c2ccc(F)cc12 (stereo unspecified)"
  EC50, nM: 38

###

# system_name: 5-hydroxytryptamine receptor 6 (Homo sapiens, UniProt P50406)
# method_notes: Agonist activity at human 5-HT6 receptor expressed in human HeLa cells assessed as effect on 5HT-induced intracellular cAMP level after 10 mins by radioimmunoassay relative to serotonin
# Assay type: functional, cell-based

- compound: "O=S(=O)(c1cccc(Cl)c1)c1cn(C2CCNC2)c2ccccc12 (stereo unspecified)"
  system_name: "5-hydroxytryptamine receptor 6 (Homo sapiens, UniProt P50406)"
  Emax [%]: 48
- compound: "O=S(=O)(c1cccc(F)c1)c1cn(C2CCNC2)c2ccccc12 (stereo unspecified)"
  system_name: "5-hydroxytryptamine receptor 6 (Homo sapiens, UniProt P50406)"
  Emax [%]: 38
- compound: "O=S(=O)(c1cn(C2CCCNC2)c2ccccc12)c1cccc2cccnc12 (stereo unspecified)"
  system_name: "5-hydroxytryptamine receptor 6 (Homo sapiens, UniProt P50406)"
  Emax [%]: 71
- compound: "O=S(=O)(c1ccccc1)c1cn(C2CCNC2)c2ccccc12 (stereo unspecified)"
  system_name: "5-hydroxytryptamine receptor 6 (Homo sapiens, UniProt P50406)"
  Emax [%]: 70
- compound: "COc1ccc2c(c1)c(S(=O)(=O)c1cccc(F)c1)cn2C1CCCNC1 (stereo unspecified)"
  system_name: "5-hydroxytryptamine receptor 6 (Homo sapiens, UniProt P50406)"
  Emax [%]: 75
- compound: "O=S(=O)(c1cccc(F)c1)c1cn(C2CCCNC2)c2ccccc12 (stereo unspecified)"
  system_name: "5-hydroxytryptamine receptor 6 (Homo sapiens, UniProt P50406)"
  Emax [%]: 78
- compound: "O=S(=O)(c1ccccc1)c1cn(C2CCCNC2)c2ccccc12 (stereo unspecified)"
  system_name: "5-hydroxytryptamine receptor 6 (Homo sapiens, UniProt P50406)"
  Emax [%]: 99
- compound: "O=S(=O)(c1cccc(F)c1)c1cn(C2CCNC2)c2ccc(F)cc12 (stereo unspecified)"
  system_name: "5-hydroxytryptamine receptor 6 (Homo sapiens, UniProt P50406)"
  Emax [%]: 50
- compound: "CCN1CCCC(n2cc(S(=O)(=O)c3ccccc3)c3ccccc32)C1 (stereo unspecified)"
  system_name: "5-hydroxytryptamine receptor 6 (Homo sapiens, UniProt P50406)"
  Emax [%]: 52
- compound: "CCN1CCCC(n2cc(S(=O)(=O)c3cccc(F)c3)c3cc(OC)ccc32)C1 (stereo unspecified)"
  system_name: "5-hydroxytryptamine receptor 6 (Homo sapiens, UniProt P50406)"
  Emax [%]: 50
- compound: "CN1CCC(n2cc(S(=O)(=O)c3cccc(F)c3)c3ccccc32)C1 (stereo unspecified)"
  system_name: "5-hydroxytryptamine receptor 6 (Homo sapiens, UniProt P50406)"
  Emax [%]: 49
